Recorded values, source the RNAGym collection of RNA variant scans (doi:10.1093/nar/gkz1192).

B1: CPEB3 Ribozyme (parent)
chain: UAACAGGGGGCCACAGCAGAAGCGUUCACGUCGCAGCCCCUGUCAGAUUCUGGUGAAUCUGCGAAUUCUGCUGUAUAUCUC

Variants of: B1
Test method notes: self-cleavage, relative activity (ratio to wild type); higher = more cleavage; in vitro, sequencing
Experimental readout: self-cleavage

Some solved entries appear below for comparison.
alteration="U58C A64U" result=0.33
alteration="A18U U80A" result=0.53
alteration="C12A C29U" result=0.7

Give the reported value of self-cleavage for this record: A20U U72A 0.25
